Data credit: patent US10774051B2

Reported pIC50 values for the following compounds.
System Name: human P2X7 receptor (Homo sapiens, UniProt Q99572, R270H/Y155H)
Assay Info: Evaluation of human P2X7 receptor inhibitory activity (Yo-Pro uptake, BzATP stimulation, FLIPR TETRA)
Format: cell-based
Details: 1321N1 cells stably expressing human P2X7 receptor; BzATP stimulation, Yo-Pro uptake; read-out: IC50 (antagonistic activity for the human P2X7 receptor), class symbol
pIC50: −log10 of the molar value.

Worked cases, answers included:
Cc1c(Cl)cccc1Nc1nc(=O)c(CC(=O)NC2COC2)cn1Cc1ccccc1 [Compound I-0342]	6.30 to 7.00
COc1cn(Cc2ccccc2)c(Nc2cc(O)ccc2Cl)nc1=O [Compound I-0156]	6.30 to 7.00
COc1ccc(Cl)c(Nc2nc(=O)c(OC)cn2Cc2ccc(F)c(Cl)c2)c1 [Compound I-0544]	7.00 to 8.00

Continue with the compound presented below.
Query: What value of pIC50 has been reported for the following compound? COc1cn(Cc2ccccc2COC(F)F)c(Nc2cccc(Cl)c2C)nc1=O [Compound I-0475]
Reply: > 8.00

* * *

System Name: human P2X7 receptor (Homo sapiens, UniProt Q99572, R270H/Y155H)
Assay Info: Evaluation of human P2X7 receptor inhibitory activity (Yo-Pro uptake, BzATP stimulation, FLIPR TETRA)
Assay type: cell-based
Details: antagonistic activity for the human P2X7 receptor; read-out: IC50
pIC50: −log10 of the molar value.
Reported pIC50 values for the following compounds.

Worked cases, answers included:
COc1cn(Cc2ccc(F)c(F)c2)c(Nc2cc(-n3cccc3)ccc2C)nc1=O	> 8.00
Cc1nc2cc(C)c(Nc3nc(=O)c(CCO)cn3Cc3cc(F)c(F)c(F)c3)cc2s1	7.00 to 8.00
Cc1nc2cc(Cl)c(Nc3nc(=O)c(F)cn3Cc3cc(F)c(F)c(F)c3)cc2o1	> 8.00
COc1ccc(Cl)c(Nc2nc(=O)c(F)cn2Cc2cc(F)c(F)c(F)c2)c1	> 8.00
COc1cn(Cc2cc(F)c(F)c(F)c2)c(Nc2cc(OC(F)(F)F)ccc2C)nc1=O	7.00 to 8.00
COc1cn(Cc2cc(F)c(F)c(F)c2)c(Nc2c(C)ccc(C)c2F)nc1=O	> 8.00

Query: What value of pIC50 has been reported for the following compound? COc1cc(C)c(Nc2nc(=O)c(F)cn2Cc2cc(F)c(F)c(F)c2)cc1F
Reply: > 8.00

Query: What value of pIC50 has been reported for the following compound? Cc1nc2cc(C)c(Nc3nc(=O)cc(C)n3Cc3cc(F)c(F)c(F)c3)cc2s1
Reply: 7.00 to 8.00

* * *

System Name: human P2X7 receptor (Homo sapiens, UniProt Q99572, R270H/Y155H)
Assay Info: Evaluation of human P2X7 receptor inhibitory activity (Yo-Pro uptake, BzATP stimulation, FLIPR TETRA)
Assay type: cell-based
Details: antagonistic activity for the human P2X7 receptor; read-out: IC50
pIC50: −log10 of the molar value.
Reported pIC50 values for the following compounds.

Worked cases, answers included:
Cc1c(Nc2nc(=O)ccn2Cc2cc(F)cc(F)c2)ccc2[nH]ccc12	> 8.00
Cc1nc2cc(C)c(Nc3nc(=O)c(F)cn3Cc3cc(F)c(F)c(F)c3)cc2s1	> 8.00
COc1cn(Cc2ccc(F)c(Cl)c2)c(Nc2ccc(C#N)cc2C)cc1=O	6.30 to 7.00
COc1cn(Cc2cc(F)cc(F)c2)c(Nc2cc3nc(C)sc3cc2C)nc1=O	6.30 to 7.00
COc1cc(Nc2nc(=O)c(OC)cn2Cc2ccc(F)c(Cl)c2)c(C)cc1C	> 8.00
COc1cn(Cc2cc(F)c(F)c(F)c2)c(Nc2ccc(Oc3ccnc(F)c3)cc2C)nc1=O	6.30 to 7.00
COc1cn(Cc2ccccc2)c(Nc2cc(C)c(OC(F)(F)F)cc2C)nc1=O	> 8.00

Continue with the compound presented below.
Query: What value of pIC50 has been reported for the following compound? COc1cn(Cc2cc(F)c(F)c(F)c2)c(Nc2cc(C)c(OC(F)F)cc2C)nc1=O
Reply: > 8.00
